Ref: paper PMC5843811

Assay: Biodistribution in AR42J tumor-bearing mice
Conditions: female, CD-1 nude (athymic nude), mouse, AR42J tumor / blood, iv, total radioactivity, Tumor-to-blood ratio, i.v. ~5 MBq (~1 nmol), 30 min p.i., mean ± SD, n=3
MEASURE: tissue to tissue ratio at 0.5 h
Reply briefly: the number, and no unit.

Task item: Read off the recorded tissue to tissue ratio at 0.5 h for C[C@@H](O)[C@@H]1NC(=O)[C@H](CCCCN)NC(=O)[C@@H](Cc2c[nH]c3ccccc23)NC(=O)[C@H](Cc2cccc3ccccc23)NC(=O)[C@@H](NC(=O)[C@@H](Cc2ccccc2)NC(=O)CCC(C(=O)O)N2CCN(CC(=O)O)CCN(CC(=O)O)CC2)CSSC[C@@H](C(=O)N[C@H](CO)[C@@H](C)O)NC1=O (stereo partly shown) [^44Sc-NODAGA-NOC, metal not drawn]
Reply: 5.23

----------
Experiment: Biodistribution in U87MG tumor-bearing mice
Format: in vivo
Conditions: female, CD-1 nude (athymic nude), mouse, U87MG tumor / liver, iv, total radioactivity, i.v. ~5 MBq (~1 nmol), 2 h p.i., mean ± SD, n=3, read-out: Tumor-to-liver ratio
MEASURE: tissue to tissue ratio at 2 h
Reply briefly: the number, and no unit.

Task item: Read off the recorded tissue to tissue ratio at 2 h for N=C(N)NCCC[C@@H]1NC(=O)[C@H](CCCCNC(=O)CN2CCN(CC(=O)O)CCN(CC(=O)O)CCN(CC(=O)O)CC2)NC(=O)[C@@H](Cc2ccccc2)NC(=O)[C@H](CC(=O)O)NC(=O)CNC1=O [^44Sc-DOTA-RGD, metal not drawn]
Reply: 0.61

----------
Experiment: Biodistribution in AR42J tumor-bearing mice
Settings: female, CD-1 nude (athymic nude), mouse, intestines, iv, total radioactivity, Biodistribution, i.v. ~5 MBq (~1 nmol), 2 h p.i., mean ± SD, n=3
MEASURE: tissue uptake at 2 h (%ID/g)
Your answer should be a plain number; it is taken to be in %ID/g.

Task item: Read off the recorded tissue uptake at 2 h for C[C@@H](O)[C@@H]1NC(=O)[C@H](CCCCN)NC(=O)[C@@H](Cc2c[nH]c3ccccc23)NC(=O)[C@H](Cc2cccc3ccccc23)NC(=O)[C@@H](NC(=O)[C@@H](Cc2ccccc2)NC(=O)CCC(C(=O)O)N2CCN(CC(=O)O)CCN(CC(=O)O)CC2)CSSC[C@@H](C(=O)N[C@H](CO)[C@@H](C)O)NC1=O (stereo partly shown) [^44Sc-NODAGA-NOC, metal not drawn]
Reply: 0.29

----------
Experiment: Biodistribution in AR42J tumor-bearing mice
Settings: female, CD-1 nude (athymic nude), mouse, lung, iv, total radioactivity, Biodistribution, i.v. ~5 MBq (~1 nmol), 5 h p.i., mean ± SD, n=3
MEASURE: tissue uptake at 5 h (%ID/g)
Your answer should be a plain number; it is taken to be in %ID/g.

Task item: Read off the recorded tissue uptake at 5 h for C[C@@H](O)[C@@H]1NC(=O)[C@H](CCCCN)NC(=O)[C@@H](Cc2c[nH]c3ccccc23)NC(=O)[C@H](Cc2cccc3ccccc23)NC(=O)[C@@H](NC(=O)[C@@H](Cc2ccccc2)NC(=O)CCC(C(=O)O)N2CCN(CC(=O)O)CCN(CC(=O)O)CC2)CSSC[C@@H](C(=O)N[C@H](CO)[C@@H](C)O)NC1=O (stereo partly shown) [^44Sc-NODAGA-NOC, metal not drawn]
Reply: 0.89

----------
Experiment: Biodistribution in AR42J tumor-bearing mice
Details: female, CD-1 nude (athymic nude), mouse, adrenals, iv, total radioactivity, Biodistribution, i.v. ~5 MBq (~1 nmol), 5 h p.i., mean ± SD, n=3
MEASURE: tissue uptake at 5 h (%ID/g)
Your answer should be a plain number; it is taken to be in %ID/g.

Task item: Read off the recorded tissue uptake at 5 h for C[C@@H](O)[C@@H]1NC(=O)[C@H](CCCCN)NC(=O)[C@@H](Cc2c[nH]c3ccccc23)NC(=O)[C@H](Cc2cccc3ccccc23)NC(=O)[C@@H](NC(=O)[C@@H](Cc2ccccc2)NC(=O)CCC(C(=O)O)N2CCN(CC(=O)O)CCN(CC(=O)O)CC2)CSSC[C@@H](C(=O)N[C@H](CO)[C@@H](C)O)NC1=O (stereo partly shown) [^44Sc-NODAGA-NOC, metal not drawn]
Reply: 2.87

----------
Experiment: Biodistribution in U87MG tumor-bearing mice
Assay type: in vivo
Settings: female, CD-1 nude (athymic nude), mouse, U87MG tumor / blood, iv, total radioactivity, i.v. ~5 MBq (~1 nmol), 30 min p.i., mean ± SD, n=3, read-out: Tumor-to-blood ratio
MEASURE: tissue to tissue ratio at 0.5 h
Reply briefly: the number, and no unit.

- MOLECULE: "N=C(N)NCCC[C@@H]1NC(=O)[C@H](CCCCNC(=O)CN2CCN(CC(=O)O)CCN(CC(=O)O)CCN(CC(=O)O)CC2)NC(=O)[C@@H](Cc2ccccc2)NC(=O)[C@H](CC(=O)O)NC(=O)CNC1=O [^44Sc-DOTA-RGD, metal not drawn]"
  tissue to tissue ratio at 0.5 h: 4.82

Task item: Read off the recorded tissue to tissue ratio at 0.5 h for N=C(N)NCCC[C@@H]1NC(=O)[C@H](CCCCNC(=O)CCC(C(=O)O)N2CCN(CC(=O)O)CCN(CC(=O)O)CC2)NC(=O)[C@@H](Cc2ccc(O)cc2)NC(=O)[C@H](CC(=O)O)NC(=O)CNC1=O (some centres unmarked) [^44Sc-NODAGA-RGD, metal not drawn]
Reply: 4.73

----------
Assay: Biodistribution in AR42J tumor-bearing mice
Settings: female, CD-1 nude (athymic nude), mouse, blood, iv, total radioactivity, Biodistribution, i.v. ~5 MBq (~1 nmol), 5 h p.i., mean ± SD, n=3
MEASURE: tissue uptake at 5 h (%ID/g)
Your answer should be a plain number; it is taken to be in %ID/g.

Task item: Read off the recorded tissue uptake at 5 h for C[C@@H](O)[C@@H]1NC(=O)[C@H](CCCCN)NC(=O)[C@@H](Cc2c[nH]c3ccccc23)NC(=O)[C@H](Cc2cccc3ccccc23)NC(=O)[C@@H](NC(=O)[C@@H](Cc2ccccc2)NC(=O)CCC(C(=O)O)N2CCN(CC(=O)O)CCN(CC(=O)O)CC2)CSSC[C@@H](C(=O)N[C@H](CO)[C@@H](C)O)NC1=O (stereo partly shown) [^44Sc-NODAGA-NOC, metal not drawn]
Reply: 0.14

----------
Assay: Biodistribution in U87MG tumor-bearing mice
Format: in vivo
Conditions: female, CD-1 nude (athymic nude), mouse, U87MG tumor, iv, total radioactivity, i.v. ~5 MBq (~1 nmol), 30 min p.i., mean ± SD, n=3, read-out: Biodistribution, U87MG Tumor
MEASURE: tissue uptake at 0.5 h (%ID/g)
Your answer should be a plain number; it is taken to be in %ID/g.

- COMPOUND: "N=C(N)NCCC[C@@H]1NC(=O)[C@H](CCCCNC(=O)CCC(C(=O)O)N2CCN(CC(=O)O)CCN(CC(=O)O)CC2)NC(=O)[C@@H](Cc2ccc(O)cc2)NC(=O)[C@H](CC(=O)O)NC(=O)CNC1=O (some centres unmarked) [^44Sc-NODAGA-RGD, metal not drawn]"
  UNITS TEXT: "%ID/g"
  tissue uptake at 0.5 h: 4.5

Task item: Read off the recorded tissue uptake at 0.5 h for N=C(N)NCCC[C@@H]1NC(=O)[C@H](CCCCNC(=O)CN2CCN(CC(=O)O)CCN(CC(=O)O)CCN(CC(=O)O)CC2)NC(=O)[C@@H](Cc2ccccc2)NC(=O)[C@H](CC(=O)O)NC(=O)CNC1=O [^44Sc-DOTA-RGD, metal not drawn]
Reply: 4.88

----------
Assay: Biodistribution in AR42J tumor-bearing mice
Conditions: female, CD-1 nude (athymic nude), mouse, spleen, iv, total radioactivity, Biodistribution, i.v. ~5 MBq (~1 nmol), 5 h p.i., mean ± SD, n=3
MEASURE: tissue uptake at 5 h

Task item: Read off the recorded tissue uptake at 5 h for C[C@@H](O)[C@@H]1NC(=O)[C@H](CCCCN)NC(=O)[C@@H](Cc2c[nH]c3ccccc23)NC(=O)[C@H](Cc2cccc3ccccc23)NC(=O)[C@@H](NC(=O)[C@@H](Cc2ccccc2)NC(=O)CCC(C(=O)O)N2CCN(CC(=O)O)CCN(CC(=O)O)CC2)CSSC[C@@H](C(=O)N[C@H](CO)[C@@H](C)O)NC1=O (stereo partly shown) [^44Sc-NODAGA-NOC, metal not drawn]
Reply: 0.47 %ID/g

----------
# tissue uptake at 2 h per record follows
Test: Biodistribution in U87MG tumor-bearing mice
Format: in vivo
Conditions: female, CD-1 nude (athymic nude), mouse, heart, iv, 5 MBq per mouse, total radioactivity, i.v. ~5 MBq (~1 nmol), 2 h p.i., mean ± SD, n=3, read-out: Biodistribution, Heart
Your answer should be a plain number; it is taken to be in %ID/g.

- COMPOUND: "N=C(N)NCCC[C@@H]1NC(=O)[C@H](CCCCNC(=O)CCC(C(=O)O)N2CCN(CC(=O)O)CCN(CC(=O)O)CC2)NC(=O)[C@@H](Cc2ccc(O)cc2)NC(=O)[C@H](CC(=O)O)NC(=O)CNC1=O (some centres unmarked) [^44Sc-NODAGA-RGD, metal not drawn]"
  tissue uptake at 2 h (%ID/g): 0.44

Note: attention shifts to another entry.
Task item: Read off the recorded tissue uptake at 2 h for N=C(N)NCCC[C@@H]1NC(=O)[C@H](CCCCNC(=O)CN2CCN(CC(=O)O)CCN(CC(=O)O)CCN(CC(=O)O)CC2)NC(=O)[C@@H](Cc2ccccc2)NC(=O)[C@H](CC(=O)O)NC(=O)CNC1=O [^44Sc-DOTA-RGD, metal not drawn]
Reply: 0.31
